# System: P. Vulgaris 08601
# EXPERIMENT_SUMMARY: Antibacterial activity (MIC), standard method of the Japanese Society of Chemotherapy
# Type: cell-based
# COND: Proteus vulgaris; P. Vulgaris 08601; read-out: MIC
# MIC per record follows
Give just the numeric value; ng/mL need not be written.

Note to self: MIC recorded for N#Cc1c(N2CC[C@@H](C3(N)CC3)C2)c(F)cc2c(=O)c(C(=O)O)cn(C3CC3)c12 [No. 2] was 6

Given item N#Cc1c(N2CC[C@@H](C3(N)CC3)C2)ccc2c(=O)c(C(=O)O)cn([C@@H]3C[C@@H]3F)c12 [Control drug 1, reference compound] , the value recorded as its MIC is 25

The recorded MIC for N#Cc1c(N2CC[C@@H](C3(N)CC3)C2)c(F)cc2c(=O)c(C(=O)O)cn([C@@H]3C[C@@H]3F)c12 [No. 1] is 6

Continue with the compound presented below.
For record C[C@H]1COc2c(N3CCN(C)CC3)c(F)cc3c(=O)c(C(=O)O)cn1c23 [LVFX, levofloxacin, reference compound] the listed MIC is 12
